// data source = patent US11116771B2

- Assay explanation: in vitro
- Study conditions: human, Cell viability of normal cells, about 1-5 mg/mL of ONC201, 72 hours
Assay readout: viability at 72 h

Challenge: GET /values?readout=viability at 72 h&item= Cc1ccccc1CN1C(=O)C2=C(CCN(Cc3ccccc3)C2)N2CCN=C12 [ONC201]
Response given: ≥ 75%

---

- Test system: Staphylococcus aureus ATCC 29213
- Assay explanation: MIC by micro-broth dilution, S. aureus ATCC 29213
- Format: cell-based
- Study conditions: Staphylococcus aureus, ATCC29213; ATCC 29213; 24 hours; read-out: MIC, Visual
Assay readout: MIC

// input: 3 compounds below; output: MIC for each
1. O=C1C2=C(CCN(Cc3ccccc3)C2)N2CCN=C2N1Cc1ccc(F)c(F)c1 [ONC213]
2. O=C1C2=C(CCN(Cc3ccccc3)C2)N2CCN=C2N1Cc1ccc(F)cc1F [ONC206]
3. Cc1ccccc1CN1C2=NCCN2C(=O)C2=C1CCN(Cc1ccccc1)C2 [TIC-10]

Response given:
25 µg/mL
6.25 µg/mL
> 100 µg/mL

Challenge: What value of MIC has been reported for the following compound? O=C1C2=C(CCN(Cc3ccccc3)C2)N2CCN=C2N1Cc1ccc(C(F)(F)F)cc1 [ONC212]
Response given: 3.12 µg/mL

---

- Test system: Staphylococcus aureus ATCC 33591
- Assay explanation: MIC by micro-broth dilution, S. aureus ATCC 33591
- Format: cell-based
- Study conditions: Staphylococcus aureus, ATCC33591; ATCC 33591; 24 hours; read-out: MIC99
Give MIC99 for every item shown.
One number for each entry, in µg/mL.

# Compound, Unit of measure, MIC99
measured = [
    ("O=C1C2=C(CCN(Cc3ccccc3)C2)N2CCN=C2N1Cc1ccc(F)c(F)c1 [ONC213]", "µg/mL", 100),
]

In the following, a different compound is considered.
Challenge: Look at this compound and give its reported MIC99. O=C1C2=C(CCN(Cc3ccccc3)C2)N2CCN=C2N1Cc1ccc(C(F)(F)F)cc1 [ONC212]
Response given: 100

---

- Assay explanation: Rat non-GLP oral single dose study
- Assay type: in vivo
- Study conditions: rat, in vivo, po
Assay readout: NOAEL (mg/kg)
Numbers only, in mg/kg.

Challenge: Can you look up the measured NOAEL of O=C1C2=C(CCN(Cc3ccccc3)C2)N2CCN=C2N1Cc1ccc(C(F)(F)F)cc1 for me?
Response given: 25

---

- Test system: Staphylococcus aureus ATCC 33591
- Assay explanation: MIC by micro-broth dilution, S. aureus ATCC 33591
- Assay type: cell-based
- Study conditions: Staphylococcus aureus, ATCC33591; ATCC 33591; 24 hours; read-out: MIC, Visual
Assay readout: MIC (µg/mL)
Numbers only, in µg/mL.

Worked examples, 2 compounds total:
# Compound, Unit of measure, MIC
records = [
    ("O=C1C2=C(CCN(Cc3ccccc3)C2)N2CCN=C2N1Cc1ccc(F)cc1F [ONC206]", "µg/mL", 12.5),
    ("O=C1C2=C(CCN(Cc3ccccc3)C2)N2CCN=C2N1Cc1ccc(C(F)(F)F)cc1 [ONC212]", "µg/mL", 3.12),
]

Shifting focus to the compound that follows.
Challenge: Can you share its MIC? I mean this compound: O=C1C2=C(CCN(Cc3ccccc3)C2)N2CCN=C2N1Cc1ccc(F)c(F)c1 [ONC213]
Response given: 3.12
